sequences and their reported thermal melting temperature
target: HLA-C*04:01; assay: thermal melting temperature (Tm) of peptide-HLA complex; higher = more thermostable pHLA complex; settings: C1R-A*02:01
PROPERTY LABEL: thermal melting temperature (°C)

VFDKTLAEL 58.9
IYDPNLAFL 58.9
HYDPATEEF 60.2
YFPELIANF 45.6
NFDDIKNGL 52.1
FYDPDVGNF 50.9
TFDVAPSRLDF 60.1
FYDLYGGEKF 48.8
VFDEAIRAV 61.2
YFDPANGKF 57.6
FYDERIVVV 63.9
FYEPQKGSIYL 60.5
IFSEKPVFV 60
KADGVPVYL 56.5
FLPEAPAEL 54.1
ILDPHVVLL 54.8
FWDGKIVLV 62.5
RFDESMQVF 55.9
VFDVTAPNTF 56.1
SFDAHLTEL 53
TFDPVTKVL 51.4
QYDEAVAQF 56.7
SFDETVTHF 58.6
LFDDKAVEI 57.2
TFDVAPSRL 52.3
HWDPQEVTL 58.9
